B1: F-BAR and double SH3 domains protein 1, residues 467 to 528; numbered along this chain, Q86WN1 (parent)
chain: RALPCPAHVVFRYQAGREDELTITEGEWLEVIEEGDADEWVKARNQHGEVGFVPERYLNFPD

Variants of: B1
MEASUREMENT DESCRIPTION: abundance fitness (aPCA) (normalised: wild type 0, dead -1); higher = more abundant; growth selection in yeast, the domain comes from the species named
ASSAY CONTEXT: Homo sapiens
Values of abundance fitness greater than or equal to -0.3 map to Condition met; values below map to Condition not met.

   mutant_name   class_assignment
0         E34M      Condition met
1         Y13D  Condition not met
2         E20Y  Condition not met
3         V10Q  Condition not met
4          C5G  Condition not met

Identify whether the reported abundance fitness of the following variant is -0.3 or greater: E39L
Condition met

Okay, and Y13Q ?
Condition not met

Okay, and W40D ?
Condition met

Okay, and V41P ?
Condition not met

Okay, and K42V ?
Condition met

Okay, and Y13V ?
Condition not met

Okay, and E33F ?
Condition not met

Okay, and A37P ?
Condition met

Okay, and Q14F ?
Condition met

Okay, and A7W ?
Condition not met

Okay, and L3P ?
Condition met

Okay, and V41I ?
Condition not met

Okay, and K42P ?
Condition not met

Okay, and E20L ?
Condition not met
